# log10(EC50) annotations
- Tested on: HBV rcDNA in HepDE19 cells
- experiment-notes: HepDE19 assay with bDNA quantitation of HBV rcDNA
- Assay type: cell-based, hepatitis B virus
- experimental-setup: Hepatitis B virus, HepDE19, HepDE19 assay, inhibition of rcDNA formation, bDNA quantitation; read-out: DE-19bDNA EC50
measured-attribute: log10(EC50) (log10 of the value in nM)

* CN(C(=O)c1cc2sc(Cl)cc2[nH]1)[C@@H]1COC(=O)c2[nH]c(=O)c3cc(F)c(F)cc3c21 | 1.30
* CN(C(=O)c1cc2cc(F)c(F)cc2[nH]1)[C@@H]1COCc2nc(OCCO)c3cc(F)c(F)cc3c21 | 1.00
* CN(C(=O)c1ccc(Br)cc1)[C@@H]1COCc2[nH]c(=O)c3cc(F)c(F)cc3c21 | 1.00
* CN([C@@H]1COCc2[nH]c(=O)c3cc(F)c(F)cc3c21)S(=O)(=O)c1ccc(F)c(C#N)c1 | 4.36
* CN(C(=O)c1ccc(-c2ccc(F)cc2)c(F)c1)[C@@H]1COCc2[nH]c(=O)c3cc(F)c(F)cc3c21 | 4.24
* CN(C(=O)c1cnc(C(F)(F)F)c(F)c1)[C@@H]1COCc2[nH]c(=O)c3cc(F)c(F)cc3c21 | 1.48
* CN(C(=O)c1ccc2nncn2c1)[C@@H]1COCc2[nH]c(=O)c3cc(F)c(F)cc3c21 | 4.34
* CN(C(=O)c1ccc2cn[nH]c2c1)[C@@H]1COCc2[nH]c(=O)c3cc(F)c(F)cc3c21 | 2.04
* CN(C(=O)c1cc2c(Cl)nc(Cl)cc2[nH]1)[C@@H]1COCc2[nH]c(=O)c3cc(F)c(F)cc3c21 | 1.60
* CN(C(=O)c1cc2ccncc2[nH]1)[C@@H]1COCc2[nH]c(=O)c3cc(F)c(F)cc3c21 | 2.30
* CN(C(=O)[C@H](O)c1cccc(Cl)c1)[C@@H]1COCc2[nH]c(=O)c3cc(F)c(F)cc3c21 | 3.08
* CN(C(=O)c1ccc2ccccn12)[C@@H]1COCc2[nH]c(=O)c3cc(F)c(F)cc3c21 | 3.73
* CN(C(=O)c1csc(Br)c1)[C@@H]1COCc2[nH]c(=O)c3cc(F)c(F)cc3c21 | 1.85
* CN(C(=O)c1cnc2ccccc2c1)[C@@H]1COCc2[nH]c(=O)c3cc(F)c(F)cc3c21 | 2.52
* CN(C(=O)c1cc2nc(Br)ccc2[nH]1)[C@@H]1COCc2[nH]c(=O)c3cc(F)c(F)cc3c21 | 3.26
